measurement target: Protein cereblon/von Hippel-Lindau disease tumor suppressor (Homo sapiens, UniProt P40337+Q96SW2)
Sequence (P40337 whole entry, looked up): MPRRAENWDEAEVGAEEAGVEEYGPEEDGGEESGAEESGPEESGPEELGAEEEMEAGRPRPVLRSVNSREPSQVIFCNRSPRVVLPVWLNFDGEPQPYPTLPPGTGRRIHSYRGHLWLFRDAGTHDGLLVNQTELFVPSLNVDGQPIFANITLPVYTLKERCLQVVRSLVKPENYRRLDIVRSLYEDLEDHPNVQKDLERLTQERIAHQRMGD
Sequence (Q96SW2 whole entry, looked up): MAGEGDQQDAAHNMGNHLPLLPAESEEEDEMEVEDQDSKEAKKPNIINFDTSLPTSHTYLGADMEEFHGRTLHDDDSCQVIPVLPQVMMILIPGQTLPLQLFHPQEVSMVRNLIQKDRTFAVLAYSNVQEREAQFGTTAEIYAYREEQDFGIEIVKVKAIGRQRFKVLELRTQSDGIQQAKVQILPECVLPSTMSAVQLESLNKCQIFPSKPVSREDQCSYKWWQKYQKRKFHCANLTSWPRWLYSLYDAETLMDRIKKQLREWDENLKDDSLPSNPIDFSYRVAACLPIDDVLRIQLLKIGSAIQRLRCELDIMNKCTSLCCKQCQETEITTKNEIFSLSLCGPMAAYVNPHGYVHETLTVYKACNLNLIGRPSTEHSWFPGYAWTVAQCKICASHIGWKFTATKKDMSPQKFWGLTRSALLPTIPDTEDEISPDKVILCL
assay details: Protac activity at VHL/CRBN in human HeLa cells assessed as pVHL30 protein abundance at 1 uM after 4 hrs by Western blot analysis relative to DMSO
Format: cell-based
reported endpoint: Activity (%)

Consider the reported Activity for these compounds:
>>> quantitative_readout("Cc1ncsc1-c1ccc(CNC(=O)[C@@H]2C[C@@H](O)CN2C(=O)[C@@H](NC(=O)C2(F)CC2)C(C)(C)SCCOCCOCCOCCOCCOCC(=O)NCCNc2cccc3c2C(=O)N(C2CCC(=O)NC2=O)C3=O)cc1 (stereo not given in full)")
110
>>> quantitative_readout("Cc1ncsc1-c1ccc(CNC(=O)[C@@H]2C[C@@H](O)CN2C(=O)[C@@H](NC(=O)COCCCCCCOCC(=O)NCCNc2cccc3c2C(=O)N(C2CCC(=O)NC2=O)C3=O)C(C)(C)C)cc1 (stereo not given in full)")
75
>>> quantitative_readout("Cc1ncsc1-c1ccc(CNC(=O)[C@@H]2C[C@@H](O)CN2C(=O)[C@@H](NC(=O)C2(F)CC2)C(C)(C)C)c(OCCOCCOCCOCC(=O)NCCNc2cccc3c2C(=O)N(C2CCC(=O)NC2=O)C3=O)c1 (stereo not given in full)")
113
>>> quantitative_readout("O=C1CCC(N2C(=O)c3cccc(NCCOCCOCCNc4cccc5c4C(=O)N(C4CCC(=O)NC4=O)C5=O)c3C2=O)C(=O)N1 (stereo not given)")
87
>>> quantitative_readout("Cc1ncsc1-c1ccc(CNC(=O)[C@@H]2C[C@@H](O)CN2C(=O)[C@@H](NC(=O)COCCOCCOCCOCCOCCOCCOCCOCCOCC(=O)NCCNc2cccc3c2C(=O)N(C2CCC(=O)NC2=O)C3=O)C(C)(C)C)cc1 (stereo not given in full)")
91
>>> quantitative_readout("Cc1ncsc1-c1ccc(CNC(=O)[C@@H]2C[C@@H](O)CN2C(=O)[C@@H](NC(=O)COCCOCCOCCOCCOCCOCC(=O)NCCNc2cccc3c2C(=O)N(C2CCC(=O)NC2=O)C3=O)C(C)(C)C)cc1 (stereo not given in full)")
96

(a) Cc1ncsc1-c1ccc(CNC(=O)[C@@H]2C[C@@H](O)CN2C(=O)[C@@H](NC(=O)COCCCCCOCCOCCCCCOCC(=O)NCCNc2cccc3c2C(=O)N(C2CCC(=O)NC2=O)C3=O)C(C)(C)C)cc1 (stereo not given in full)
(b) Cc1ncsc1-c1ccc(CNC(=O)[C@@H]2C[C@@H](O)CN2C(=O)[C@@H](NC(=O)COCCOCCOCCOCCOCCOCC(=O)N[C@H](C(=O)N2C[C@H](O)C[C@H]2C(=O)NCc2ccc(-c3scnc3C)cc2)C(C)(C)C)C(C)C)cc1
For a and b , which recorded Activity is lower? Return value: the label identifying the chosen record.
b
(b: 1%, a: 103%)
